experimental target: UniProt:P61073
Sequence (P61073 whole entry): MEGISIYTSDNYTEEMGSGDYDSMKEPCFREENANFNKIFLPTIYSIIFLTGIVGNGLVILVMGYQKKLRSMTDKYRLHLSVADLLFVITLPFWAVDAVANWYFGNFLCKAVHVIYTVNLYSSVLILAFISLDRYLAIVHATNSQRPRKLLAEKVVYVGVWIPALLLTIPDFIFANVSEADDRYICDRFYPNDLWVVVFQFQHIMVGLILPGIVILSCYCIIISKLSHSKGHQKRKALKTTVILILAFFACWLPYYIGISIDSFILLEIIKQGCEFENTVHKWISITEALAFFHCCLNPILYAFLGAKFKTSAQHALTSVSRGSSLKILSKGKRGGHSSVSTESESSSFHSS
measurement notes: Intracellular CXCL-12-induced calcium mobilization assay (FLIPR)
setup conditions: U87.CXCR4 cells; CXCL-12 25-50 ng/mL; compounds added 15 minutes before; read-out: IC50 CXCL-12 Ca2+ flux U87.CXCR4+
readout kind: IC50

Lab note: need IC50 for `Cn1c(CN(CCc2c[nH]cn2)[C@H]2CCCc3cccnc32)nc2ccccc21` on UniProt:P61073, anyone have it?
0.01 to 100 nM

Which measured IC50 belongs to `CC(C)c1cccnc1CN(CCc1cnc[nH]1)Cc1ncccc1C(C)C` , tested on UniProt:P61073?
≥ 1000 nM

What reported IC50 corresponds to `Clc1cccnc1CN(CCc1cnc[nH]1)Cc1nccs1` on UniProt:P61073?
≥ 1000 nM

What is its IC50 for UniProt:P61073? Entry: `Cc1cccnc1CN(CCc1cnc[nH]1)Cc1nccc2ccccc12`
0.01 to 100 nM

UniProt:P61073 / IC50 / `Cn1c(CN(CCC(N)=O)[C@H]2CCCc3cccnc32)nc2ccccc21` : value?
100 to 1000 nM

Param readout = IC50; param system = UniProt:P61073; param query = `OCCCN(Cc1nc2ccccc2[nH]1)[C@H]1CCCc2cccnc21` ; response: value
100 to 1000 nM

Query the reported IC50 for UniProt:P61073; item: CC(c1ccccn1)N(CCc1cnc[nH]1)Cc1ccccn1 (stereo not shown)
≥ 1000 nM

Provide the documented IC50 with UniProt:P61073 as the system for `Cc1cccnc1CN(CCc1c[nH]cn1)Cc1nc2c(F)cccc2n1C`
0.01 to 100 nM

Form field - read-out: IC50; system: UniProt:P61073; submitted item: `Cc1cccnc1CN(CCC(N)=O)Cc1ncccc1Cl`
≥ 1000 nM

For the record `NC(=O)CCN(Cc1nccs1)[C@H]1CCCc2cccnc21` , what value of IC50 is listed for UniProt:P61073?
≥ 1000 nM

Notebook: pull reported IC50 for UniProt:P61073, entry `c1cnc2c(c1)CCC[C@@H]2N(CCc1cscn1)Cc1nc2ccccc2[nH]1`
0.01 to 100 nM

Kindly state the measured IC50 obtained for `NC(=O)CCN(Cc1nccc2ccccc12)[C@H]1CCCc2cccnc21` with UniProt:P61073.
100 to 1000 nM

Item: `c1ccc2c(CN(CCc3c[nH]cn3)Cc3nccs3)nccc2c1` Test system: UniProt:P61073 Read-out: IC50 Value: ?
≥ 1000 nM

Request - read-out IC50 | tested on UniProt:P61073 | molecule `CC(=O)NCCN(Cc1ncccc1C)[C@H]1CCCc2cccnc21`
100 to 1000 nM

Return IC50 measured with UniProt:P61073 given this molecule: `NC(=O)CCN(Cc1ncccc1Cl)[C@H]1CCCc2cccnc21`
≥ 1000 nM

Please tell me: IC50 of `Cc1cccnc1CN(CCc1cnc[nH]1)Cc1ncccc1Cl` , system UniProt:P61073?
100 to 1000 nM
